Source of measurements: PubChem BioAssay AID1745844

Tested on: rodent lifetime carcinogenesis bioassay, tumor incidence TD50
Assay: carcinogenic potency in animals, long-term in vivo studies, CPDB compilation (AID 1745844)
Details: rat; strain Fischer 344; males; inhaled; site: kidney; lesion: tubule adenoma + tubule carcinoma; dosed 104 weeks; study length 104 weeks
Parameter: TD50 (mg/kg/day)

C=CC(=C)Cl    16.1

----------
Test system: rodent lifetime carcinogenesis bioassay, tumor incidence TD50
Assay: carcinogenic potency in animals, long-term in vivo studies, CPDB compilation (AID 1745844)
Details: mouse; strain B6C3F1; males; in feed; site: any site (literature study); lesion: several types; types named in the paper; dosed 102 weeks; study length 102 weeks
Calls of active or inactive are those of the source. The rule behind the calls is not given here.
Parameter: TD50

C[N+](C)(C)CCCl    3240 mg/kg/day (inactive)
